// IC50 collected for SARM1 (50-724) (Homo sapiens)

Observe how each entry below is paired with its result.
compound	IC50
CNC(=O)CCc1nnc(-c2nc3cc(C(F)(F)F)ccc3[nH]2)n1-c1cccc(Cl)c1Cl [Compound 156]	≤ 100 nM
FC(F)(F)c1ccc2[nH]c(-c3nccnc3-c3cccc(Cl)c3Cl)nc2c1 [Compound 304]	500 to 1000 nM
O=C1CCCN1c1c(-c2nncn2-c2cnccc2C(F)(F)F)[nH]c2ccc(C(F)(F)F)cc12 [Compound 367]	> 1000 nM
CC(C)(C#N)c1ccc2[nH]c(-c3nncn3-c3cccc(Cl)c3Cl)nc2c1 [Example 112]	≤ 100 nM
FC(F)(F)c1ccncc1-n1cnnc1-c1nc2cc(N3C4COCC3C4)ccc2[nH]1 [Compound 342]	500 to 1000 nM

Next item in the queue.
[ask] Return IC50 measured with SARM1 (50-724) (Homo sapiens) given this compound: [2H]c1nnc(-c2nc3c(F)c(C4([2H])CC4)cc(F)c3[nH]2)n1-c1cnccc1C(F)(F)F [Compound 394]
[reply] ≤ 100 nM

====

Reported IC50 is given for each of the following compounds.
Molecular target: SARM1 (50-724) (Homo sapiens, UniProt Q6SZW1)
Sequence (Q6SZW1 50-724): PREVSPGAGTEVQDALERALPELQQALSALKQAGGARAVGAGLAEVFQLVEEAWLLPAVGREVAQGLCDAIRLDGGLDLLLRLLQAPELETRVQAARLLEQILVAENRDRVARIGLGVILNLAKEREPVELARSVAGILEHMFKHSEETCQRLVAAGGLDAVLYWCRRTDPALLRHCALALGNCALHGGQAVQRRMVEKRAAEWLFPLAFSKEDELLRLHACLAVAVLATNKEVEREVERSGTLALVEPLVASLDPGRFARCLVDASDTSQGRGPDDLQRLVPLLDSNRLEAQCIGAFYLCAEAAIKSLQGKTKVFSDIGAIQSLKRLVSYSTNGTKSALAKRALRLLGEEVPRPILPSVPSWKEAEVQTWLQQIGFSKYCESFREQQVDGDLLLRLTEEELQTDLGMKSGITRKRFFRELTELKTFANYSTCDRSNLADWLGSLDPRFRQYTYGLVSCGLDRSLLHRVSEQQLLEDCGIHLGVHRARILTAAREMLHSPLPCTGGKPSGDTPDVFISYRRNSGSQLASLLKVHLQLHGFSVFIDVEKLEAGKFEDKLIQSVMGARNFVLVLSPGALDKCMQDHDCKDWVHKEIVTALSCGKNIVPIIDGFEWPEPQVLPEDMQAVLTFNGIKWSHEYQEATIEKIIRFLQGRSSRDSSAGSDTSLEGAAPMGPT

Use these answered entries as a reference point.
compound	assayedSystem	val
[O-][S+]1CCN(c2ccccc2)C(c2nc3cc(C(F)(F)F)ccc3[nH]2)C1 (stereo not shown)	SARM1 (50-724) (Homo sapiens, UniProt Q6SZW1)	> 1000 nM
CC(c1cccnc1)c1cc(F)c2[nH]c(-c3nncn3-c3cnccc3C(F)(F)F)nc2c1 (stereo not shown)	SARM1 (50-724) (Homo sapiens, UniProt Q6SZW1)	≤ 100 nM
FC(F)(F)c1cnc2[nH]c(-c3nncn3-c3cnccc3C(F)(F)F)cc2n1	SARM1 (50-724) (Homo sapiens, UniProt Q6SZW1)	≤ 100 nM

[ask] IC50 for Cn1c(-n2cnnc2-c2nc3cc(C(F)(F)F)ccc3[nH]2)c(C(F)(F)F)ccc1=O ?
[reply] ≤ 100 nM

[ask] # IC50 lookup, item Fc1cc(C(F)(F)F)cc2nc(-c3nncn3-c3cc(C(F)F)ccc3Cl)[nH]c12
[reply] ≤ 100 nM

[ask] Give the measured IC50 of Cn1cc(-c2ccc3[nH]c(-c4nncn4-c4cccc(Cl)c4Cl)nc3c2)cn1 .
[reply] 100 to 500 nM

[ask] Consider the compound O=S1(=O)CC[C@@H](OC(F)(F)F)[C@H](n2cnnc2-c2nc3cc(C(F)(F)F)ccc3[nH]2)C1 (single isomer, unassigned) and give its measured IC50.
[reply] > 1000 nM

[ask] Dear colleague, I am looking for the recorded IC50 of the following compound: Fc1cc(C2CC23CCOCC3)cc2nc(-c3nncn3-c3cnccc3C(F)(F)F)[nH]c12 (stereo not shown)
[reply] ≤ 100 nM

[ask] State the recorded IC50 for this entry: O=C1CCCN1c1ccc2[nH]c(-c3nncn3-c3cccc(Cl)c3Cl)nc2c1
[reply] > 1000 nM

[ask] Given the entry FC(F)(F)c1ccc2[nH]c(-n3nncc3-c3cccc(Cl)c3Cl)nc2c1 , report its measured IC50.
[reply] ≤ 100 nM

[ask] I'd like to know its IC50. The compound in question is FC(F)(F)c1ccc2[nH]c(-c3nncn3-c3c(C(F)(F)F)ccn4nccc34)nc2c1
[reply] ≤ 100 nM

[ask] # IC50 lookup, item CON(C)Cc1nnc(-c2nc3cc(C(F)(F)F)ccc3[nH]2)n1-c1cccc(F)c1Cl
[reply] ≤ 100 nM

[ask] Recorded IC50 for CS(=O)(=O)Cc1nnc(-c2nc3cc(C(F)(F)F)cc(F)c3[nH]2)n1-c1cccc(F)c1Cl (single isomer, unassigned) , please?
[reply] ≤ 100 nM

[ask] What does the record list as IC50 for FC(F)(F)c1ccc2[nH]c([C@H]3COC[C@@H]3c3ccccc3)nc2c1 (single isomer, unassigned) ?
[reply] > 1000 nM
